- systemName: LTA4-h (Homo sapiens)
- Sequence (P09960 1-611): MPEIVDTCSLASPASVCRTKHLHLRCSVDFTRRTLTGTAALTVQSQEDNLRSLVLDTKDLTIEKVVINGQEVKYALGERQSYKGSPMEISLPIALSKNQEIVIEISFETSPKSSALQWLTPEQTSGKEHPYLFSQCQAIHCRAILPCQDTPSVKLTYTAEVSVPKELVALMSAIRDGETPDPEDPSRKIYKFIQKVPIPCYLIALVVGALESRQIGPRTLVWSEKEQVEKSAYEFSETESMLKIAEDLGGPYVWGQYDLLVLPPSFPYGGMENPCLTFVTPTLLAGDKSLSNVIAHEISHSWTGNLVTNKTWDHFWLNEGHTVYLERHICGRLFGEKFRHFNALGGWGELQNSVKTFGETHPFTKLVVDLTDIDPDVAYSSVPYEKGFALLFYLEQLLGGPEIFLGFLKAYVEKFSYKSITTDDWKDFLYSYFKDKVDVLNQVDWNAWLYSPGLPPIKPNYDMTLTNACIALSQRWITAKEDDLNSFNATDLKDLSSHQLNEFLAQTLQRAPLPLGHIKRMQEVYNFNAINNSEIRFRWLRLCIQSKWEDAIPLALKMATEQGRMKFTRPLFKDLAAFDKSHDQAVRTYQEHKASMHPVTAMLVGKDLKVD
- protocolDetails: hydrolase assay (hydrolase-homogeneous time resolved fluorescence)
- Type: biochemical
pIC50: −log10 of the molar value.
valueType: pIC50

Solved cases below.
compound | systemName | measuredValue
CN(Cc1ccc(Oc2ccc(Cl)cc2)cc1)Cc1ccc(N2CCCC(C(=O)O)C2)nc1 (stereo not shown) [Compound 24] | LTA4-h (Homo sapiens) | 6.82
CN(Cc1ccc(Oc2ccc(Cl)cc2)cc1)Cc1cccnc1Oc1ccc(C(=O)O)cc1 | LTA4-h (Homo sapiens) | 7.30

a = CN(Cc1ccc(Oc2ccc(Cl)cc2)cc1)Cc1ccc(N2CCC(C(=O)O)CC2)nc1
b = O=C(O)C1CCCN(c2ccc(CNCc3ccc(OCc4ccc(Cl)cc4)cc3)cn2)C1 (stereo not shown)
### Prompt Choose between a and b : whose measured pIC50 value is numerically larger? Give the label under which the chosen entry appears.
### Response a

----------
- systemName: LTA4-h hydrolase (Homo sapiens)
- Construct: from tissue; host or cells: whole blood
- protocolDetails: whole blood assay (WBA)
- Assay type: cell-based
- settings: read-out: IC50 WBA
- From the text: Compounds of the invention can also be tested for their ability as inhibitors of LTA4-h hydrolase in the whole blood assay using human, mouse, rat or dog whole blood (see Penning, T. D. et al., J. Med. Chem. (2000), 43(4): 721-735 for a description of a human whole blood assay and a mouse whole blood assay, the contents of which are expressly incorporated herein). […]
valueType: IC50 (nM)

a = O=C(O)C1CCCN(c2ccc(CNCc3ccc(OC/C=C/c4ccccc4)cc3)cn2)C1 (stereo not drawn)
b = O=C(O)C1CCCN(c2ccc(CNCc3ccc(Oc4ccc(Cl)cc4)cc3)cn2)C1 (stereo not drawn)
### Prompt Of a and b , whose reported IC50 is numerically smaller? Give the label under which the chosen entry appears.
### Response b
(b: 32 nM, a: 230 nM)

A = CN(Cc1ccc(Oc2ccc(-c3ncco3)cc2)cc1)Cc1ccc(N2CCCC(C(=O)O)C2)nc1 (stereo not drawn)
B = CN(Cc1ccc(Oc2ccc(Cl)cc2)cc1)Cc1ccc(N2CCCC(C(=O)O)C2)nc1 (stereo not drawn)
### Prompt Of A and B , whose reported IC50 is numerically smaller? Give the label under which the chosen entry appears.
### Response A
(A: 180 nM, B: 510 nM)
